I'd be grateful if you could share measured Percent Primer Extension for these entries.
Molecular target: telomerase (Homo sapiens, UniProt O14746)
Sequence (O14746 whole entry): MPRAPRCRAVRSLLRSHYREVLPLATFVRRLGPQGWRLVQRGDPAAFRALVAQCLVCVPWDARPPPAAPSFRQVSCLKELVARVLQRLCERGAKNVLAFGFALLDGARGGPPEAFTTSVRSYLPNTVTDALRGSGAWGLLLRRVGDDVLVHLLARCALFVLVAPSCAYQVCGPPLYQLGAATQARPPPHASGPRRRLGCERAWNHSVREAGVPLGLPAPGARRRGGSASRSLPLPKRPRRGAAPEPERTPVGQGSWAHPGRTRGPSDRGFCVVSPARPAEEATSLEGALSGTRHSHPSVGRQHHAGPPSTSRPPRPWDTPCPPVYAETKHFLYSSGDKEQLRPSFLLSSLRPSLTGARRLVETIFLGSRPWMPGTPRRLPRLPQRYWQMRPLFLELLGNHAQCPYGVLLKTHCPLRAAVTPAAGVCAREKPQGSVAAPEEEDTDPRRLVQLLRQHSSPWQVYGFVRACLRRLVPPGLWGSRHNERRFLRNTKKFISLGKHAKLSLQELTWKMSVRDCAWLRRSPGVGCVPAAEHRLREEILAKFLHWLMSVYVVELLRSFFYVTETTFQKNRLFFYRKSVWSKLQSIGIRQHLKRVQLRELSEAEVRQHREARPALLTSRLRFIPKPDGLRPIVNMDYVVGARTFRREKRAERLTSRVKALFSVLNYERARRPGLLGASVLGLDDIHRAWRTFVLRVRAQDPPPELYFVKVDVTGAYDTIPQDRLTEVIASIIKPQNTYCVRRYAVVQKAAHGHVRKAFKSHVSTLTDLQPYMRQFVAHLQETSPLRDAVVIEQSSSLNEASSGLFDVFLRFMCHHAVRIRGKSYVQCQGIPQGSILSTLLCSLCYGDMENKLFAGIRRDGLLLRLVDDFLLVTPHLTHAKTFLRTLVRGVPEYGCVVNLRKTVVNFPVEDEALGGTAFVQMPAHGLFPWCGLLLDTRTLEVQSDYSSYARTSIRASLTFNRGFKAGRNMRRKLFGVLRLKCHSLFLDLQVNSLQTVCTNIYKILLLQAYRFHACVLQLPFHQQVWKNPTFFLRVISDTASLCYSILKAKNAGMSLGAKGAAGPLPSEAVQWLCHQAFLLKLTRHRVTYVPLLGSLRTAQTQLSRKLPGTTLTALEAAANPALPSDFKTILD
Test: Telomerase extension of 32P-end labeled primers with a single dNTP (percent primer extension)
Format: biochemical
Design: made in house; anti-FLAG immunopurification, eluted with 3xFLAG peptide
Conditions: Primer 2 (GGTTAG)3, first template base rC1; 50 μM single dNTP; Mean of three experiments
Numeric only. Scale: %

Input: State the recorded Percent Primer Extension for this entry: Cc1cn(C2CC(O)C(COP(=O)(O)OP(=O)(O)OP(=O)(O)O)O2)c(=O)[nH]c1=O (stereo not shown)
Output: 0.00

Input: Name the reported Percent Primer Extension value associated with the compound Nc1nc(O)nc2c1ncn2C1CC(O)C(COP(=O)(O)OP(=O)(O)OP(=O)(O)O)O1 (stereo not shown)
Output: 1.32

Input: I am curious: what Percent Primer Extension value has been reported for `Nc1ccn([C@H]2C[C@H](O)[C@@H](COP(=O)(O)OP(=O)(O)OP(=O)(O)O)O2)c(=O)n1` ?
Output: 0.00

Input: Which value of Percent Primer Extension has been reported for `Cc1cn([C@H]2C[C@H](N=[N+]=[N-])[C@@H](CO[P@](=O)(O)O[P@](=O)(O)OP(=O)(O)O)O2)c(=O)[nH]c1=O` in the records?
Output: 0.00

Input: Field request: Percent Primer Extension | item: Nc1ncnc2c1ncn2C1CC(O)C(COP(=O)(O)OP(=O)(O)OP(=O)(O)O)O1 (stereo not shown)
Output: 0.00

Input: Look at this compound and give its reported Percent Primer Extension. Nc1nc2c([nH]c(=O)n2C2CC(O)C(COP(=O)(O)OP(=O)(O)OP(=O)(O)O)O2)c(=O)[nH]1 (stereo not shown)
Output: 0.96

Input: I'd like to know its Percent Primer Extension. The compound in question is Nc1ncnc2c1[nH]c(=O)n2C1CC(O)C(COP(=O)(O)OP(=O)(O)OP(=O)(O)O)O1 (stereo not shown)
Output: 0.00
